Taken from PubChem BioAssay AID932.

test: STAT1 signaling activators, primary screen, cell-based, HTS, luciferase reporter (AID 932); details: NIH 3T3 STAT1-luciferase reporter, IFN-gamma, luminescence; at 5.5 µM; 100% = IFN-gamma alone, no compound;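 further: raw ratio to IFN-gamma control signal so 100% means no change and 0% no light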
The campaign covered roughly 200,000 compounds. About 5,100 (2.5%) were called active.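 How the source made its calls: active means activation above the screen-wide mean activation plus 3 SD (cut at about 130% in these data); inactive means the rest.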 For the sample, actives were picked, then their nearest neighbours and some compounds at random.
Labels: 1 for active, -1 for inactive

| Compound | Qualitative Label |
| --- | --- |
| CN(c1ccc(C(=O)NCc2ccccn2)cc1)S(C)(=O)=O | -1 |
| O=C(NCc1cccs1)c1cc(-c2ccccn2)nc2ccc(Br)cc12 | -1 |
| CC(=O)Nc1ccc(S(=O)(=O)Nc2nc(-c3ccc(C(C)(C)C)cc3)cs2)cc1 | -1 |
| O=C(NNC(=S)Nc1ccc(Br)cc1Cl)c1ccco1 | 1 |
| COc1ccc(Cc2nnc(NC(=O)c3cc(OC)c(OC)c(OC)c3)s2)cc1OC | -1 |
| N/C(=N\OC(=O)c1ccc2c(c1)OCO2)c1ccc(Br)cc1 | 1 |
| COc1ccc(C(=O)Nc2nc(-c3ccc(S(=O)(=O)N4CCOCC4)cc3)cs2)cc1 | -1 |
| COc1ccc(N2CCN(C(=S)Nc3ccc(S(N)(=O)=O)cc3)CC2)cc1 | -1 |
| COc1ccc(-c2csc(N3CCN(Cc4ccc5c(c4)OCO5)CC3)n2)cc1 | -1 |
| COc1cccc(OCC(=O)NNC(=O)c2cnccn2)c1 | -1 |
| c1ccc(CN2CCC(N=C3NN=C(c4ccc5c(c4)OCCO5)CS3)CC2)cc1 | -1 |
| Cc1cccc(N=C2NN=C(c3c[nH]c4ccccc34)CS2)c1 | -1 |
| CC(C)(C)n1nc2c(c1NC(=O)c1cc3ccccc3o1)CSC2 | -1 |
| O=C(NCCC1=CCCCC1)c1ccc(Cl)c([N+](=O)[O-])c1 | -1 |
| Cc1cccc(OC(=O)c2sc3ncn(C)c(=O)c3c2C)c1 | 1 |
| Cc1nnc(SCC(=O)N2CCc3ccccc32)n1-c1ccccc1 | -1 |
| NS(=O)(=O)c1ccc(Nc2nc(-c3ccccc3)cs2)cc1 | 1 |
| Clc1cccc(N=C2NN=C(c3ccc4c(c3)OCCO4)CS2)c1 | 1 |
| CN(c1ccc(C(=O)NCCC2=CCCCC2)cc1)S(C)(=O)=O | 1 |
| CC(C)(C)C(=O)NCCCNc1ccc([N+](=O)[O-])cc1 | -1 |
| COc1ccc(C2(CNC(=O)Cc3ccc(OC)c(OC)c3)CCCC2)cc1 | -1 |
| COc1ccc(-c2csc(Cc3nc(O)cs3)n2)cc1 | 1 |
| N#CCSc1nc2ccc(N3CCOCC3)cc2c(=O)n1CCc1ccccc1 | -1 |
| COc1ccc(-c2csc(Nc3ccc(O)cc3)n2)cc1 | -1 |
| C=CCN1C(=O)C(O)(CC(=O)c2ccccn2)c2ccccc21 (configuration not stated) | -1 |
| Cc1ccccc1C(=O)Nc1ccc(N2CCCCCC2)cc1 | 1 |
| S=C(Nc1ccc(Br)cc1Cl)NC1CCN(Cc2ccccc2)CC1 | -1 |
| COc1ccc(OC)c(Nc2nc(-c3ccc(O)c(O)c3)cs2)c1 | -1 |
| Cc1cc(C(=O)Nc2ccccc2N2CCOCC2)c2ccccc2n1 | -1 |
| Cc1c(C(N)=O)sc2ncn(CCOc3ccccc3)c(=O)c12 | -1 |
| Cc1nn2c3cc(N4CCOCC4)ccc3nc2c2ccccc12 | 1 |
| NC(=O)N1CCc2ccccc21 | -1 |
| CCOC(=O)C(C)n1cnc2sc(C)c(C)c2c1=O (configuration not stated) | -1 |
| CN(C(=O)CSc1nncc2ccccc12)C1CCCCC1 | 1 |
| O=C(N/N=C/C=C/c1ccco1)c1cccs1 | -1 |
| O=C(Cc1nn[nH]n1)NCCC1=CCCCC1 | -1 |
| COc1ccc2nc(Nc3nc(-c4cc5ccccc5oc4=O)cs3)sc2c1 | -1 |
| CN(C)S(=O)(=O)c1ccc(N2CCCC2=O)c([N+](=O)[O-])c1 | -1 |
| CN(C(=O)CSc1nnnn1-c1ccccc1)C1CCCCC1 | -1 |
| CC(=O)Nc1ccc(/C=N/NC(=O)c2cccs2)cc1 | 1 |
| CCOC(=O)c1cc(NC(=O)c2cccnc2)cc(C(=O)OCC)c1 | -1 |
| CCCc1c(C)nc2c(Br)cccc2c1Cl | -1 |
| CCOc1ccc(/C=N/Nc2nncc(-c3ccccc3)n2)cc1OC | -1 |
| Cc1ccc(-n2nc(C)c(/C=N/NC(=O)c3cccs3)c2Cl)cc1 | -1 |
| COc1ccc(-c2nc3cnccn3c2NC(C)(C)CC(C)(C)C)cc1O | -1 |
| COc1ccc(/C=N/Nc2nc3ccccc3o2)cc1OC | 1 |
| C/C(=N\NC(=O)c1cccc(N2CCCC2=O)c1)c1ccc(N)cc1 | -1 |
